STUDY_TARGET: CD73 (Homo sapiens (Human))
MEASUREMENT_DESCRIPTION: MDA-MB-231 Cell Based CD73 Activity Assay
CONDITION_CONTEXT: MDA-MB-231-GFP cells, RPMI medium with 10% human plasma, 200 uM AMP
RECORDED_METRIC: EC50

The examples below pair each entry with its known result.
>  <COMPOUND>
O=c1[nH]cc(-c2cc([C@H]3C[C@@H]3c3ccc(F)c(Cl)c3)c3nccn3n2)c(=O)[nH]1 (racemic)

>  <RESULT>
6.05 nM

$$$$
>  <COMPOUND>
O=c1[nH]cc(-c2cc(-n3ccnc3)c3nccn3n2)c(=O)[nH]1

>  <RESULT>
74.1 nM

$$$$
>  <COMPOUND>
O=c1[nH]cc(-c2cc([C@H]3C[C@@H]3c3ccc(OC(F)(F)F)cc3)c3nccn3n2)c(=O)[nH]1 (mixture of isomers)

>  <RESULT>
16.7 nM

$$$$

Okay, next one:
Please report EC50 for the following compound: `O=c1[nH]cc(-c2cc(N3CC4CCC(C4)C3)c3nccn3n2)c(=O)[nH]1` 76 nM

* * *

STUDY_TARGET: CD73 (Homo sapiens (Human), UniProt P21589)
Sequence (P21589 27-574): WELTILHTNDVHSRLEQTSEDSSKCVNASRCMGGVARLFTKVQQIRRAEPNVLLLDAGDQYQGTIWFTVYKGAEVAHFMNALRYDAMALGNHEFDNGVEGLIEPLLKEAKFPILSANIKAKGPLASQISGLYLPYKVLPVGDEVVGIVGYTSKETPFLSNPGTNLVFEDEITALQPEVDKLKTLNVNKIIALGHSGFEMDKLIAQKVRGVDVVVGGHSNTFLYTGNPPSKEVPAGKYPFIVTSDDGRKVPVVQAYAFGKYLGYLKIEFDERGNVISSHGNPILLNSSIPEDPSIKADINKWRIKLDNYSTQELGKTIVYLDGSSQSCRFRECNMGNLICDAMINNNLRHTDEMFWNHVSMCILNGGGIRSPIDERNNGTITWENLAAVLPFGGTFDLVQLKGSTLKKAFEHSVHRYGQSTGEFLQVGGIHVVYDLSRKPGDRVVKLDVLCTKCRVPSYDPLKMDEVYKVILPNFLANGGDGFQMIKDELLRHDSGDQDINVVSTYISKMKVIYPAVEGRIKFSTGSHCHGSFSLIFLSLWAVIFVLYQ
Format: biochemical
CONDITION_CONTEXT: 1 mM NaH2PO4 in enzyme buffer, CD73 0.3 nM, AMP 15 uM
log10(IC50) overview
Scale: decimal log of IC50, IC50 in nM.

>  <COMPOUND>
COC1CN(c2cc(-c3c[nH]c(=O)[nH]c3=O)nn3ccnc23)CC1(F)F (centres unmarked) [Example 473]

>  <STUDY_TARGET>
CD73 (Homo sapiens (Human), UniProt P21589)

>  <log10(IC50)>
0.76

$$$$
>  <COMPOUND>
O=C(Nc1ccccc1F)O[C@H]1CN(c2cc(-c3c[nH]c(=O)[nH]c3=O)nn3ccnc23)CC1(F)F [Example 241]

>  <STUDY_TARGET>
CD73 (Homo sapiens (Human), UniProt P21589)

>  <log10(IC50)>
0.33

$$$$
>  <COMPOUND>
O=C(c1cccc(C2CN(c3cc(-c4c[nH]c(=O)[nH]c4=O)nn4ccnc34)C2)c1)N1CC(F)(F)C1 [Example 268]

>  <STUDY_TARGET>
CD73 (Homo sapiens (Human), UniProt P21589)

>  <log10(IC50)>
1.99

$$$$

Please report log10(IC50) for the following compound: O=C1N(CC(F)(F)F)c2cc([C@H]3C[C@@H]3c3cc(-c4c[nH]c(=O)[nH]c4=O)nn4c(Cl)c(Cl)nc34)ccc2C12CC2 [Example 741] -0.31

Please report log10(IC50) for the following compound: O=C(c1cccc([C@H]2C[C@@H]2c2cc(-c3c[nH]c(=O)[nH]c3=O)nn3ccnc23)c1)N1CCC1 (racemic) [Example 294] 0.01

Please report log10(IC50) for the following compound: O=c1[nH]cc(-c2cc([C@H]3C[C@@H]3c3ccc(C(F)(F)F)cc3)c3ncc(F)n3n2)c(=O)[nH]1 (racemic) [Example 183] 0.40

Please report log10(IC50) for the following compound: CC1(C)C(=O)N(CC(F)(F)F)c2cc([C@H]3C[C@@H]3c3cc(-c4c[nH]c(=O)[nH]c4=O)nn4c(Cl)cnc34)ccc21 [Example 722] 0.04

Please report log10(IC50) for the following compound: O=c1[nH]cc(-c2cc(N3C[C@H](F)[C@@H](F)C3)c3nccn3n2)c(=O)[nH]1 (racemic) [Example 73] 0.99

Please report log10(IC50) for the following compound: O=c1[nH]cc(-c2cc([C@H]3C[C@@H]3c3ccccc3)c3nccn3n2)c(=O)[nH]1 (racemic) [Example 7] -0.03

Please report log10(IC50) for the following compound: O=c1[nH]cc(-c2cc(N3CC(F)(F)C4(CCC4)C3)c3nccn3n2)c(=O)[nH]1 [Example 325] 0.23

Please report log10(IC50) for the following compound: CNC(=O)c1ccc([C@H]2C[C@@H]2c2cc(-c3c[nH]c(=O)[nH]c3=O)nn3ccnc23)cc1 (racemic) [Example 285] 0.15

Please report log10(IC50) for the following compound: O=c1[nH]cc(-c2cc([C@H]3C[C@@H]3c3ccc4cnn(CC5CC5(F)F)c4c3)c3nccn3n2)c(=O)[nH]1 (mixture of isomers) [Example 118] -0.10

Please report log10(IC50) for the following compound: O=c1[nH]cc(-c2cc(N3CC(Oc4ccc(C(F)(F)F)cn4)C(F)(F)C3)c3nccn3n2)c(=O)[nH]1 (centres unmarked) [Example 523] 0.28

Please report log10(IC50) for the following compound: O=c1[nH]cc(-c2cc(N3C[C@H]4CCC[C@H]4C3)c3nccn3n2)c(=O)[nH]1 [Example 223] 1.50

* * *

pIC50 overview
STUDY_TARGET: UniProtKB P21589
Type: biochemical
CONDITION_CONTEXT: 1 mM NaH2PO4 in enzyme buffer, CD73 0.3 nM, AMP 15 uM
Would you please state pIC50, meaning minus log10 of the concentration in mol/L, as a bare number?

State recorded pIC50 with UniProtKB P21589, entry `O=c1[nH]cc(-c2cc(N3CCC(F)(F)C3)c3nccn3n2)c(=O)[nH]1` , no comment. 8.34

* * *

EC50 overview
STUDY_TARGET: CD73 (Homo sapiens (Human))
MEASUREMENT_DESCRIPTION: MDA-MB-231 Cell Based CD73 Activity Assay (DMEM)
CONDITION_CONTEXT: MDA-MB-231-GFP cells, DMEM medium with 10% human plasma, 200 uM AMP
I only need the number, in nM, no unit after it.

The examples below pair each entry with its known result.
>  <MOLECULE>
O=c1[nH]cc(-c2cc(N3CCC(F)(C(F)(F)F)C3)c3nccn3n2)c(=O)[nH]1 (stereo not drawn) [Example 169]

>  <MEASUREMENT_UNIT>
nM

>  <EC50>
189

$$$$
>  <MOLECULE>
O=C(NC1CN(c2cc(-c3c[nH]c(=O)[nH]c3=O)nn3ccnc23)CC1(F)F)c1ccc(C(F)(F)F)cc1 (stereo not drawn) [Example 210]

>  <MEASUREMENT_UNIT>
nM

>  <EC50>
24.4

$$$$
>  <MOLECULE>
O=c1[nH]cc(-c2cc([C@H]3C[C@@H]3c3ccc(C(F)(F)F)cn3)c3ncc(F)n3n2)c(=O)[nH]1 [Example 144]

>  <MEASUREMENT_UNIT>
nM

>  <EC50>
6.17

$$$$
>  <MOLECULE>
O=c1[nH]cc(-c2cc(NC3CCC(F)(F)C3)c3nccn3n2)c(=O)[nH]1 (stereo not drawn) [Example 227]

>  <MEASUREMENT_UNIT>
nM

>  <EC50>
487

$$$$
>  <MOLECULE>
O=c1[nH]cc(-c2cc([C@H]3C[C@@H]3c3ccc(OC(F)F)nc3)c3ncc(F)n3n2)c(=O)[nH]1 [Example 122]

>  <MEASUREMENT_UNIT>
nM

>  <EC50>
11.1

$$$$
>  <MOLECULE>
CC(C)C(C)Oc1cc(-c2c[nH]c(=O)[nH]c2=O)nn2ccnc12 (stereo not drawn) [Example 680]

>  <MEASUREMENT_UNIT>
nM

>  <EC50>
454

$$$$
>  <MOLECULE>
N#Cc1cc([C@H]2C[C@@H]2c2cc(-c3c[nH]c(=O)[nH]c3=O)nn3ccnc23)ccc1F (mixture of isomers) [Example 64]

>  <MEASUREMENT_UNIT>
nM

>  <EC50>
7.67

$$$$
>  <MOLECULE>
O=c1[nH]cc(-c2cc(N3CCC4CC43)c3nccn3n2)c(=O)[nH]1 (stereo not drawn) [Example 254]

>  <MEASUREMENT_UNIT>
nM

>  <EC50>
136

$$$$
>  <MOLECULE>
O=c1[nH]cc(-c2cc([C@H]3C[C@@H]3c3ccc4cnn(CC(F)(F)F)c4c3)n3nccc3n2)c(=O)[nH]1 [Example 456]

>  <MEASUREMENT_UNIT>
nM

>  <EC50>
0.15

$$$$
>  <MOLECULE>
O=c1[nH]cc(-c2cc(N3CC(c4ccc(F)cc4)C3)c3nccn3n2)c(=O)[nH]1 [Example 258]

>  <MEASUREMENT_UNIT>
nM

>  <EC50>
106

$$$$

Please report EC50 for the following molecule: O=C(OCc1ccccc1)N1CC2(C1)CN(c1cc(-c3c[nH]c(=O)[nH]c3=O)nn3ccnc13)CC2(F)F [Example 505] 10.1

* * *

pIC50 overview
STUDY_TARGET: CD73 (Homo sapiens (Human), UniProt P21589)
Format: biochemical
CONDITION_CONTEXT: 1 mM NaH2PO4 in enzyme buffer, CD73 0.3 nM, AMP 15 uM
Would you please state pIC50, meaning minus log10 of the concentration in mol/L, as a bare number?

The examples below pair each entry with its known result.
>  <MOLECULE>
O=c1[nH]cc(-c2cc(N3CC(F)(F)C4(CNC4)C3)c3nccn3n2)c(=O)[nH]1

>  <pIC50>
7.68

$$$$
>  <MOLECULE>
O=c1[nH]cc(-c2cc(N3CC(F)C4(CC4)C3)c3nccn3n2)c(=O)[nH]1 (centres unmarked)

>  <pIC50>
8.50

$$$$

Please report pIC50 for the following molecule: `CC(C)(C)C#Cc1cc(-c2c[nH]c(=O)[nH]c2=O)nn2ccnc12` 7.35

Please report pIC50 for the following molecule: O=c1[nH]cc(-c2cc(N3CCC(CC(F)F)C3)c3nccn3n2)c(=O)[nH]1 (racemic) 7.12

Please report pIC50 for the following molecule: COC1(C(F)(F)F)CCN(c2cc(-c3c[nH]c(=O)[nH]c3=O)nn3ccnc23)C1 (centres unmarked) 7.74

Please report pIC50 for the following molecule: `O=c1[nH]cc(-c2cc([C@H]3C[C@@H]3c3ccc(C(F)F)cc3)c3nccn3n2)c(=O)[nH]1` 9.02

Please report pIC50 for the following molecule: O=c1[nH]cc(-c2cc([C@H]3C[C@@H]3c3ccc4nc(C(F)(F)F)ccc4c3)c3nccn3n2)c(=O)[nH]1 [Example 131] 9.11

Please report pIC50 for the following molecule: `C[C@@]1(F)CCN(c2cc(-c3c[nH]c(=O)[nH]c3=O)nn3ccnc23)C1` 8.12
